target.of.assay: HLA-C*12:03
assay.name: IEDB peptide-MHC binding, purified MHC/direct/fluorescence; filed as Kd, often an IC50 or EC50 that approximates it; bounds were set here for any values at or beyond the usual limits of such assays
condition: source organism: Mycobacterium tuberculosis variant bovis BCG str. Pasteur 1173P2
quantity.kind: Kd (nM)
Field format: number, assumed nM, no unit text.

GET /values?readout=Kd&system=HLA-C*12:03&item= VAFYCAGRF 58

* * *

target.of.assay: HLA-A*11:01
assay.name: IEDB peptide-MHC binding, purified MHC/direct/fluorescence; filed as Kd, often an IC50 or EC50 that approximates it; bounds were set here for any values at or beyond the usual limits of such assays
condition: source organism: Vibrio vulnificus YJ016
pKd: −log10 of the molar value.
quantity.kind: pKd

Missing value: pKd, HLA-A*11:01, entry IVAQGIAAL . Fill in? ≤ 4.70
